B1: POU domain, class 2, transcription factor 1, residues 285 to 354; numbered along this chain, P14859 (parent)
chain: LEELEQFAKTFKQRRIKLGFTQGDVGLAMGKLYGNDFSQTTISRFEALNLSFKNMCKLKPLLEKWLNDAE

Variants of: B1
PROCEDURE SUMMARY: abundance fitness (aPCA) (normalised: wild type 0, dead -1); higher = more abundant; growth selection in yeast, the domain comes from the species named
EXPERIMENTAL PARAMETERS: Homo sapiens
OBSERVED PROPERTY: abundance fitness
Answer with the value's number alone.

Below, 3 variants whose answers are already recorded.
Q39F    -0.14
N35M    -0.108
L50E    -0.041

Give its abundance fitness value. Item: `D36K`
-0.028

Give its abundance fitness value. Item: `A28I`
-0.054

Give its abundance fitness value. Item: `G23Q`
-0.023

These measurements were taken from the Human Domainome abundance scans (Beltran et al. 2025).
